Where these numbers come from: patent US20230416347A1

Target: T1, Len(1-22) monomer peptide (Homo sapiens (Human), UniProt P06312 21-42)
T1 construct: Analyte in SPR; on beads in the pulldown assay; also called Vκ4(LEN(1-22) beads)
T1 peptide: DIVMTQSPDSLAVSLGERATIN
Test: SPR, antibody as ligand, peptide as analyte
attribute-measured: Kd

Exercise: Quickly give me recorded Kd for VH9 + VL4-N33A (antibody, V domains shown, Humanized 11-1F4 variant) VH: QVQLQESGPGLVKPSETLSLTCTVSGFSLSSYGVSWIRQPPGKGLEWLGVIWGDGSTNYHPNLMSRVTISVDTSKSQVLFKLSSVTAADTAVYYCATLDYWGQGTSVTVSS VL: DVVMTQSPLSLPVTLGQPASISCRSSQSLVHRAGNTYLHWFQQRPGQSPRLLIYKVSNRFSGVPDRFSGSGSGTDFTLKISRVEAEDVGVYFCFQTTYVPNTFGGGTKLEIK
Solution: 88.5 nM

Exercise: Quickly give me recorded Kd for VH9 + VL4-N33Q (antibody, V domains shown, Humanized 11-1F4 variant) VH: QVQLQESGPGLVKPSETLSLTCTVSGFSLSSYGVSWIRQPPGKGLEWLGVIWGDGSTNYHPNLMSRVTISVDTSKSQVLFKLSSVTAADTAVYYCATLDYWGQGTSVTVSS VL: DVVMTQSPLSLPVTLGQPASISCRSSQSLVHRQGNTYLHWFQQRPGQSPRLLIYKVSNRFSGVPDRFSGSGSGTDFTLKISRVEAEDVGVYFCFQTTYVPNTFGGGTKLEIK
Solution: 78.4 nM

Exercise: Quickly give me recorded Kd for VH9-D54E + VL4 (antibody, V domains shown, Humanized 11-1F4 variant) VH: QVQLQESGPGLVKPSETLSLTCTVSGFSLSSYGVSWIRQPPGKGLEWLGVIWGEGSTNYHPNLMSRVTISVDTSKSQVLFKLSSVTAADTAVYYCATLDYWGQGTSVTVSS VL: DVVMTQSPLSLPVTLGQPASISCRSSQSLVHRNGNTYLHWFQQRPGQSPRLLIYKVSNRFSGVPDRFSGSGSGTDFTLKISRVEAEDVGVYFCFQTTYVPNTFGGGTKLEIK
Solution: 163 nM
